Measured self-splicing fitness (ln) values are reported for all entries that follow.
Assay: self-splicing fitness, log relative to wild type (ln ratio); higher = more splicing; Tetrahymena group I intron in knt gene, E. coli kanamycin selection, DiMSum; sequences stand for … in CUCUCU…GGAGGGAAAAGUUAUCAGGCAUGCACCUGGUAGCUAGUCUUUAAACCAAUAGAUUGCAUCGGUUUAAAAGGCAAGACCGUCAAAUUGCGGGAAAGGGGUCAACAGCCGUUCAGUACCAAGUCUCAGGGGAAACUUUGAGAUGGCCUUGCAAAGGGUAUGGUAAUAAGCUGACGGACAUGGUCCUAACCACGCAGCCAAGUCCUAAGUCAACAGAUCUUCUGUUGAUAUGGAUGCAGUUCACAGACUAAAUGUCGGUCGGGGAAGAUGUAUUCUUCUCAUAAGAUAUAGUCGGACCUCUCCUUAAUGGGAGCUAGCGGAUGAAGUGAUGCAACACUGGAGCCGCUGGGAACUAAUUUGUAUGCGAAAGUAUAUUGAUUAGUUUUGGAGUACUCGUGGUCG;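 further: selection with 25 µg/mL kanamycin versus none on LB agar overnight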
Conditions: 30 °C
ENDPOINT NAME: self-splicing fitness (ln)

RESIDUE CODES | MEAS VALUE
GCCAAGCAAUAUUACGACUC | -0.25
CAAUAGCAAUAUUACGGUGA | -2.83
ACCCAGCAAUAUUACGGUGG | -3.57
CUUUAGCAAUAUUACGCUAU | -3.66
UUUAAGCAAUAUUACGGCGC | -1.15
GGUAAGCAAUAUUACGUUUU | -2.02
UGUGAGCAAUAUUACGCGAU | -3.88
CAUCAGCAAUAUUACGCGUC | -2.58
CAACAGCAAUAUUACGCAGA | -3.45
GAGUAGCAAUAUUACGUCGC | -1.31
